Reference source for all entries: patent US9517227B2

Exercise: for every item that follows, state its recorded pEC50.
ASSAYED SYSTEM: FSHR (Homo sapiens, UniProt P23945)
Sequence (P23945 18-695): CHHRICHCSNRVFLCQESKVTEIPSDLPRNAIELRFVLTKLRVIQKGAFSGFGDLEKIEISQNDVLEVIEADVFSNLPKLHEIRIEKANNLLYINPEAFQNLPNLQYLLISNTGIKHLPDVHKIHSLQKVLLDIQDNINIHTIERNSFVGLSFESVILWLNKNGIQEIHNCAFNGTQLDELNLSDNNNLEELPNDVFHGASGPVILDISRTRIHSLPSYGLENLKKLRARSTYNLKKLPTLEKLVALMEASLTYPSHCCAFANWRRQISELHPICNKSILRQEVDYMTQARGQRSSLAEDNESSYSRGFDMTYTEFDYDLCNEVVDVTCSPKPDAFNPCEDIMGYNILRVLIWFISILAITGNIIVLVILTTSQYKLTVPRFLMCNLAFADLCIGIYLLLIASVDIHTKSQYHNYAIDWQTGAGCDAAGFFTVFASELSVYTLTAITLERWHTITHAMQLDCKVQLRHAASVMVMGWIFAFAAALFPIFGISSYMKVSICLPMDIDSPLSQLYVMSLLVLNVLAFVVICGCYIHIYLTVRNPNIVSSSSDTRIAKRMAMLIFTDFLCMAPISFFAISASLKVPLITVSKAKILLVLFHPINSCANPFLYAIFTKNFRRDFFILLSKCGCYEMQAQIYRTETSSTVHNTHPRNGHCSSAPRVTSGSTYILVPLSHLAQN
TEST: EC50 of cyclic AMP production in CHO FSHR cells + EC20 FSH (Assay A)
DETAILS: CHO-FSHR-LUC cells, 0.265 pM FSH (EC20), cAMP HTRF, 1 h
By convention, pEC50 is the negative base-10 log of a molar concentration.

// query What value of pEC50 has been recorded for this entry: COc1ccc(C2=NN(C(=O)c3cccc(F)c3)C(C)(C)C2)cc1OC
// result 4.46

// query Queued: COc1ccc(C2=NN(C(=O)c3cccc(Oc4ccccc4)c3)CC2)cc1OC
// result 4.41

// query Request: COc1ccc(C2=NN(C(=O)c3cccc(F)c3)CC2)c(OC)c1OC
// result 4.51

// query COc1ccc(C2=NN(C(=O)c3ccc(F)c(C(F)(F)F)c3)C(C)(C)C2)cc1OC , same question.
// result 4.60

// query Request: COc1ccc(-c2ccn(C(=O)c3ccc4c(c3)OCO4)n2)cc1OC
// result 5.54

// query Please give the result for CCc1ccc(C(=O)N2N=C(c3ccc(OC)c(OC)c3)CC2(C)C)cc1 too.
// result 4.52

// query # iterate: COc1ccc(C2=NN(C(=O)c3cccc(C#N)c3)C(C)(C)C2)cc1OC
// result 4.38

// query Record: COc1ccc(C2=NN(C(=O)c3cc(F)c(F)c(F)c3F)CC2)cc1OC
// result 4.55

// query Item: O=C(c1cccc(F)c1)N1CCC(c2ccc3c(c2)OCCO3)=N1
// result 4.55

// query Continue with CCc1cccc(C(=O)N2CCC(c3ccc(OC)c(OC)c3)=N2)c1
// result 4.57

// query // next record COc1ccc(C2=NN(C(=O)C(OC)c3ccc(Cl)cc3)CC2)cc1OC (stereo not drawn)
// result 4.60

// query Quick one: COc1ccc(C2=NN(C(=O)[C@@H](OC)c3ccccc3)CC2)cc1OC
// result 4.54

// query Now this one: O=C(c1ccc2c(c1)OCO2)N1CCC(c2ccc(OC(F)(F)F)cc2)=N1
// result 4.46

// query Another compound to look at: COc1ccc(C2=NN(C(=O)c3cccc(F)c3)CC2)cc1OC
// result 4.78

// query Same again, this time with COc1ccc(C2=NN(C(=O)c3cccc(C(F)(F)F)c3)C(C)(C)C2)cc1OC
// result 4.65

// query # repeat for COc1ccc(C2=NN(C(=O)c3ccc(C)c(F)c3)CC2)cc1OC
// result 4.52

// query How about this compound: COc1ccc(C2=NN(C(=O)c3ccc4c(c3)OCO4)C(C)(C)C2)cc1OC
// result 4.64

// query Input COc1ccc(C2=NN(C(=O)c3cccc(Cl)c3)CC2)cc1OC
// result 5.19
